All figures here come from paper PMC8777613.

Property: viability at 72 h, 80 µM; scope: individual compounds
METHOD: MTT dye reduction viability test, HaCaT
Assay type: cell-based, human
MEASUREMENT SETUP: human, HaCaT cells (immortal keratinocytes), HaCaT, 80 µM, 72 h, representative MTT result (Table S1 B)
The reply should contain only the number, in %.

{"columns": ["COMPOUND", "viability at 72 h, 80 µM / %"],
 "data": [
  ["CC=CC=CC(=O)Oc1ccc2c(c1)C(=O)CC(c1ccccc1)O2 (stereo not drawn) [6-Sorbic-Flavanone, 6-hydroxy-flavanone sorbic ester]", 56.7],
  ["CCCCCC=CCC=CCCCCCCCC(=O)Oc1ccc2c(=O)cc(-c3ccccc3)oc2c1 [7-Linoleic-Flavone, 7-hydroxy-flavone linoleic ester]", 44.6],
  ["CC=CC=CC(=O)Oc1ccc2c(=O)cc(-c3ccccc3)oc2c1 [7-Sorbic-Flavone, 7-hydroxy-flavone sorbic ester]", 57.4],
  ["CCCCCCCCCCCCCCCCCC(=O)Oc1ccc2c(c1)C(=O)CC(c1ccccc1)O2 (stereo not drawn) [6-Stearic-Flavanone, 6-hydroxy-flavanone stearic ester]", 32.5],
  ["CCCCCC=CCC=CCCCCCCCC(=O)Oc1ccc2c(c1)C(=O)CC(c1ccccc1)O2 (stereo not drawn) [6-Linoleic-Flavanone, 6-hydroxy-flavanone linoleic ester]", 50.3]
]}

I am curious: what viability at 72 h, 80 µM value has been reported for CCCCCCCCC=CCCCCCCCC(=O)Oc1ccc2c(=O)cc(-c3ccccc3)oc2c1 [7-Oleic-Flavone, 7-hydroxy-flavone oleic ester] ?
38.7

For CCC=CCC=CCC=CCCCCCCCC(=O)Oc1ccc2c(=O)cc(-c3ccccc3)oc2c1 [7-Linolenic-Flavone, 7-hydroxy-flavone linolenic ester] then?
15.8

For CCC=CCC=CCC=CCCCCCCCC(=O)Oc1ccc2c(c1)C(=O)CC(c1ccccc1)O2 (stereo not drawn) [6-Linolenic-Flavanone, 6-hydroxy-flavanone linolenic ester] then?
25.8

For CCCCCCCCCCCCCCCCCC(=O)Oc1ccc2c(=O)cc(-c3ccccc3)oc2c1 [7-Stearic-Flavone, 7-hydroxy-flavone stearic ester] then?
35.7

For CCCCCCCCC=CCCCCCCCC(=O)Oc1ccc2c(c1)C(=O)CC(c1ccccc1)O2 (stereo not drawn) [6-Oleic-Flavanone, 6-hydroxy-flavanone oleic ester] then?
26.5

For O=c1cc(-c2ccccc2)oc2ccc(O)cc12 [Compound 13, 6-Hydroxy-Flavone, reference compound] then?
84.9

For O=C1CC(c2ccccc2)Oc2ccc(O)cc21 (stereo not drawn) [6-Hydroxy-Flavanone, 6-hydroxy-flavanone, reference compound] then?
72.2

* * *

METHOD: MTT dye reduction viability test, HaCaT
Type: cell-based, human
MEASUREMENT SETUP: human; HaCaT, 40 µM, 72 h, representative MTT result (Table S1 B); read-out: Cells viability
ENDPOINT NAME: viability at 40 µM (%)
The reply should contain only the number, in %.

I am curious: what viability at 40 µM value has been reported for O=c1cc(-c2ccccc2)oc2cc(O)ccc12 [7-Hydroxy-Flavone, 7-hydroxy-flavone, reference compound] ?
69.7

* * *

METHOD: MTT dye reduction viability test, HaCaT
Type: cell-based, human
MEASUREMENT SETUP: human, HaCaT cells (immortal keratinocytes), HaCaT, 40 µM, 72 h, representative MTT result (Table S1 B)
ENDPOINT NAME: viability at 72 h, 40 µM (%)
The reply should contain only the number, in %.

These recorded examples may help you get a feel for the data.
{"columns": ["COMPOUND", "ENDPOINT NAME", "RESULT UNITS", "MEAS VALUE"],
 "data": [
  ["CC=CC=CC(=O)Oc1ccc2c(=O)cc(-c3ccccc3)oc2c1 [7-Sorbic-Flavone, 7-hydroxy-flavone sorbic ester]", "viability at 72 h, 40 µM", "%", 80.1],
  ["CCC=CCC=CCC=CCCCCCCCC(=O)Oc1ccc2c(=O)cc(-c3ccccc3)oc2c1 [7-Linolenic-Flavone, 7-hydroxy-flavone linolenic ester]", "viability at 72 h, 40 µM", "%", 66],
  ["O=c1cc(-c2ccccc2)oc2ccc(O)cc12 [Compound 13, 6-Hydroxy-Flavone, reference compound]", "viability at 72 h, 40 µM", "%", 77.9],
  ["CC=CC=CC(=O)Oc1ccc2c(c1)C(=O)CC(c1ccccc1)O2 (stereo not drawn) [6-Sorbic-Flavanone, 6-hydroxy-flavanone sorbic ester]", "viability at 72 h, 40 µM", "%", 89.6],
  ["CCCCCC=CCC=CCCCCCCCC(=O)Oc1ccc2c(c1)C(=O)CC(c1ccccc1)O2 (stereo not drawn) [6-Linoleic-Flavanone, 6-hydroxy-flavanone linoleic ester]", "viability at 72 h, 40 µM", "%", 86.8],
  ["CCC=CCC=CCC=CCCCCCCCC(=O)Oc1ccc2c(c1)C(=O)CC(c1ccccc1)O2 (stereo not drawn) [6-Linolenic-Flavanone, 6-hydroxy-flavanone linolenic ester]", "viability at 72 h, 40 µM", "%", 53.3],
  ["CCCCCCCCC=CCCCCCCCC(=O)Oc1ccc2c(=O)cc(-c3ccccc3)oc2c1 [7-Oleic-Flavone, 7-hydroxy-flavone oleic ester]", "viability at 72 h, 40 µM", "%", 51.9],
  ["CCCCCCCCCCCCCCCCCC(=O)Oc1ccc2c(c1)C(=O)CC(c1ccccc1)O2 (stereo not drawn) [6-Stearic-Flavanone, 6-hydroxy-flavanone stearic ester]", "viability at 72 h, 40 µM", "%", 54.7],
  ["O=C1CC(c2ccccc2)Oc2ccc(O)cc21 (stereo not drawn) [6-Hydroxy-Flavanone, 6-hydroxy-flavanone, reference compound]", "viability at 72 h, 40 µM", "%", 113],
  ["CCCCCCCCC=CCCCCCCCC(=O)Oc1ccc2c(c1)C(=O)CC(c1ccccc1)O2 (stereo not drawn) [6-Oleic-Flavanone, 6-hydroxy-flavanone oleic ester]", "viability at 72 h, 40 µM", "%", 75.7]
]}

I am curious: what viability at 72 h, 40 µM value has been reported for CCCCCC=CCC=CCCCCCCCC(=O)Oc1ccc2c(=O)cc(-c3ccccc3)oc2c1 [7-Linoleic-Flavone, 7-hydroxy-flavone linoleic ester] ?
74.5

For CCCCCCCCCCCCCCCCCC(=O)Oc1ccc2c(=O)cc(-c3ccccc3)oc2c1 [7-Stearic-Flavone, 7-hydroxy-flavone stearic ester] then?
59.1

* * *

METHOD: MTT dye reduction viability test, HaCaT
Type: cell-based, human
MEASUREMENT SETUP: human; HaCaT, 80 µM, 72 h, representative MTT result (Table S1 B); read-out: Cells viability
Method: We have chosen two types of cell culture lines: human prostate cancer cells (PC3) and normal human immortal keratinocyte cells (HaCaT) (Table 1). […] To assess the cells growth inhibition, the MTT dye reduction test was preformed based on the method described by Präbst et al.. […] The optical density was measured with an UVM 340 (ASYS Hitech GmbH, Austria) microplate reader at 570 nm. Replicates of three wells for each dosage, including vehicle control, were analyzed for each experiment. […]
ENDPOINT NAME: viability at 80 µM (%)
The reply should contain only the number, in %.

I am curious: what viability at 80 µM value has been reported for O=c1cc(-c2ccccc2)oc2cc(O)ccc12 [7-Hydroxy-Flavone, 7-hydroxy-flavone, reference compound] ?
97.2

* * *

Tested on: human prostate cancer cells (PC3)
METHOD: MTT dye reduction viability test, PC3
Type: cell-based
MEASUREMENT SETUP: Homo sapiens; PC3, 10 µM, 72 h, representative MTT result (Table S1 A)
Mark each entry criterion met if its viability at 10 µM sits below 90%, and criterion not met for all others.

Solved cases below.
{"columns": ["COMPOUND", "QUALITATIVE LABEL"],
 "data": [
  ["CCCCCC=CCC=CCCCCCCCC(=O)Oc1ccc2c(=O)cc(-c3ccccc3)oc2c1 [7-Linoleic-Flavone, 7-hydroxy-flavone linoleic ester]", "criterion met"],
  ["CCCCCC=CCC=CCCCCCCCC(=O)Oc1ccc2c(c1)C(=O)CC(c1ccccc1)O2 (stereo not drawn) [6-Linoleic-Flavanone, 6-hydroxy-flavanone linoleic ester]", "criterion not met"],
  ["CC=CC=CC(=O)Oc1ccc2c(=O)cc(-c3ccccc3)oc2c1 [7-Sorbic-Flavone, 7-hydroxy-flavone sorbic ester]", "criterion met"]
]}

Report whether reported viability at 10 µM is lower than 90% (strictly) for CC=CC=CC(=O)Oc1ccc2c(c1)C(=O)CC(c1ccccc1)O2 (stereo not drawn) [6-Sorbic-Flavanone, 6-hydroxy-flavanone sorbic ester]
criterion not met

* * *

METHOD: MTT dye reduction viability test, HaCaT
Format: cell-based, human
MEASUREMENT SETUP: human; 72 h exposure, MTT, mean ± SD; read-out: Cytotoxic activity IC50, HaCaT
pIC50: −log10 of the molar value.
ENDPOINT NAME: pIC50

I am curious: what pIC50 value has been reported for O=c1cc(-c2ccccc2)oc2cc(O)ccc12 [7-Hydroxy-Flavone, 7-hydroxy-flavone, reference compound] ?
< 4.00

* * *

METHOD: MTT dye reduction viability test, HaCaT
Type: cell-based, human
MEASUREMENT SETUP: human, HaCaT cells (immortal keratinocytes), HaCaT, 10 µM, 72 h, representative MTT result (Table S1 B)
ENDPOINT NAME: viability at 72 h, 10 µM (%)
The reply should contain only the number, in %.

These recorded examples may help you get a feel for the data.
{"columns": ["COMPOUND", "viability at 72 h, 10 µM, %"],
 "data": [
  ["CC=CC=CC(=O)Oc1ccc2c(c1)C(=O)CC(c1ccccc1)O2 (stereo not drawn) [6-Sorbic-Flavanone, 6-hydroxy-flavanone sorbic ester]", 98.7],
  ["CCCCCC=CCC=CCCCCCCCC(=O)Oc1ccc2c(c1)C(=O)CC(c1ccccc1)O2 (stereo not drawn) [6-Linoleic-Flavanone, 6-hydroxy-flavanone linoleic ester]", 95.7],
  ["CC=CC=CC(=O)Oc1ccc2c(=O)cc(-c3ccccc3)oc2c1 [7-Sorbic-Flavone, 7-hydroxy-flavone sorbic ester]", 97.5]
]}

I am curious: what viability at 72 h, 10 µM value has been reported for CCCCCC=CCC=CCCCCCCCC(=O)Oc1ccc2c(=O)cc(-c3ccccc3)oc2c1 [7-Linoleic-Flavone, 7-hydroxy-flavone linoleic ester] ?
88.4

For CCCCCCCCCCCCCCCCCC(=O)Oc1ccc2c(=O)cc(-c3ccccc3)oc2c1 [7-Stearic-Flavone, 7-hydroxy-flavone stearic ester] then?
95.8

For CCCCCCCCCCCCCCCCCC(=O)Oc1ccc2c(c1)C(=O)CC(c1ccccc1)O2 (stereo not drawn) [6-Stearic-Flavanone, 6-hydroxy-flavanone stearic ester] then?
95.4
